Where a name gives a salt, the structure may show the parent alone.
parameterMeasured: melting point (°C)

INSERT INTO results (compound, endpointresult) VALUES
  ('COC(=O)/C=C/C(=O)OCCCN1CCOCC1 (as salt: HCl)', 185.2),
  ('COC(=O)/C=C/C(=O)OCCCCCN1CCOCC1 (as salt: HCl)', 150),
  ('COC(=O)/C=C/C(=O)OCCCCCCN1CCOCC1 (as salt: HCl)', 104.1),
  ('COC(=O)/C=C/C(=O)OCCCCN1CCOCC1 (as salt: HCl)', 145.5);

====

test system: stomach lesions in the rat; experiment: Annamalai-Ma gastrointestinal irritation rat model; type: in vivo; settings: rats, oral 180 mg-equivalents MMF/kg once per day for 4 days; score 0 (normal mucosa) to 5 (severe ulceration), Table 4
Counter-ions that a name gives are not always drawn.
parameterMeasured: Stomach Irritation Score

INSERT INTO results (compound, endpointresult) VALUES
  ('COC(=O)/C=C/C(=O)OCCN1CCOCC1 [Compound 2, HCl salt]', 0),
  ('COC(=O)/C=C/C(=O)OCCCCCN1CCOCC1 [Compound 8, HCl salt]', 0),
  ('COC(=O)/C=C/C(=O)OCC(=O)N1CCOCC1 [CC-1, reference compound]', 2.9),
  ('COC(=O)/C=C/C(=O)OC [DMF, dimethyl fumarate, reference compound]', 4.6),
  ('COC(=O)/C=C/C(=O)OCCCN1CCOCC1 [Compound 4, HCl salt]', 0),
  ('COC(=O)/C=C/C(=O)OCCCCCCN1CCOCC1 [Compound 10, HCl salt]', 0),
  ('COC(=O)/C=C/C(=O)OCCCCN1CCOCC1 [Compound 6, HCl salt]', 0.6);
